- MEASUREMENT_TARGET: SARS-CoV-2 Alpha (B.1.1.7) Spike on pseudovirions (SARS-CoV-2)
- PROCEDURE_SUMMARY: cell-based or functional assay
Let's look at some binders and their measured pseudovirus neutralization IC50.

{"BINDER": "ShAb01H06K (ShAb01Hole-06Knob) (bispecific antibody, V domains shown) V domain 1: ARVDQTPRSVTKETGESLTINCVLRDSNCALSSTHWYRKKSGSTNEERILQGRRYVETVNSGSKSFSLRINDLRVEDSGTYRCKVYWGNSWQDKFCPGLGSYEYGDGTAVTVNS V domain 2: ARVDQTPRSVTKETGESLTINCVLRDASYALGSTCWYRKKSGSTNEESISKGGRYVETVNSGSKSFSLRINDLTVEDGGTYRCGVGRGLGVGCDYPLCSYSYAACGDGTAVTVNS", "pseudovirus neutralization IC50 / mg/L": 1.37}
{"BINDER": "ShAb06H02K (ShAb06Hole-02Knob) (bispecific antibody, V domains shown) V domain 1: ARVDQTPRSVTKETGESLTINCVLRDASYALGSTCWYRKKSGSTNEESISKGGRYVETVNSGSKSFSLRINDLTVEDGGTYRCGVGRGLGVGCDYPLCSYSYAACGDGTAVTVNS V domain 2: ARVDQTPQTITKETGESLTINCVLRDSNCALASTDWYRKKSGSTNEESISKGGRYVETVNSGSKSFSLRINDLTVEDSGTYRCNAWDSWETRQLKCDYDVYGGGTVVTVNS", "pseudovirus neutralization IC50 / mg/L": 0.109}
{"BINDER": "ShAb01-Foldon (ShAb01 VNAR-KESlinker-Foldon-3c-His8-Strep) (VNAR) VNAR: ARVDQTPRSVTKETGESLTINCVLRDSNCALSSTHWYRKKSGSTNEERILQGRRYVETVNSGSKSFSLRINDLRVEDSGTYRCKVYWGNSWQDKFCPGLGSYEYGDGTAVTVNK", "pseudovirus neutralization IC50 / mg/L": 0.119}
{"BINDER": "ShAb02-Foldon (ShAb02 VNAR-KESlinker-Foldon-3c-His8-Strep) (VNAR) VNAR: ARVDQTPQTITKETGESLTINCVLRDSNCALASTDWYRKKSGSTNEESISKGGRYVETVNSGSKSFSLRINDLTVEDSGTYRCNAWDSWETRQLKCDYDVYGGGTVVTVNK", "pseudovirus neutralization IC50 / mg/L": 0.035}
